System: T1, Biotinylated Human Siglec-2/CD22 Protein, Fc, Avitag (ACROBiosystems, SI2-H82F8) (human, UniProt P20273 20-687, biotinylated (Avitag))
T1 construct: Bought reagent; also called CD22 antigen; CD22-Fc-biotinylated antigen; not shown: Fc tag of the bought protein; Avitag
Assay Text: SPR (Biacore 8K), CD22-Fc-biotin on SA chip, antibody as analyte, 1:1 binding model
Returns one of met or not met; met when kon is >= 700000 M⁻¹ s⁻¹.

Inquiry: Given the entry mAb-5 (antibody, human IgG1, kappa, V domains shown, Humanized IgG1/kappa antibody; also called V5 HC + V4 LC) VH: EVQLVESGGGLVKPGGSLRLSCAASGFAFSIYDMSWIRQAPGKCLEWVAYISSGGGTTYYPGSVKGRFTISRENAKNSLYLQMNSLRSEDTAVYYCARHSGYGTHWGVLFAYWGQGTMVTVSS VL: DIQMTQSPSTLSASVGDRVTITCRASQDISNYLNWFQQRPGQSPRLLIYYTSILHSGVPSRFSGSGSGTDYTLTISSLQPEDFATYYCQQGNTLPWTFGCGTKVEIKR , answer whether its kon meets or surpasses 700000 M⁻¹ s⁻¹.
Reply text: met

Inquiry: Given the entry mAb-3 (antibody, human IgG1, kappa, V domains shown, Humanized IgG1/kappa antibody; also called V1 HC + V2 LC) VH: EVQLVESGGGLVKPGGSLRLSCAASGFAFSIYDMSWVRQAPGKCLEWVAYISSGGGTTYYPDSVKGRFTISRENAKNSLYLQMNSLKSEDTAMYYCARHSGYGTHWGVLFAYWGQGTMVTVSS VL: DIQMTQSTSTLSASVGDRVTITCRASQDISNYLNWYQQRPDGSVKLLIYYTSILHSGVPSRFSGSGSGTDYTLTISSLQDEDFATYFCQQGNTLPWTFGCGTKVEIKR , answer whether its kon meets or surpasses 700000 M⁻¹ s⁻¹.
Reply text: not met

Inquiry: Given the entry mAb-2 (antibody, human IgG1, kappa, V domains shown, Humanized IgG1/kappa antibody; also called V2 HC + V2 LC) VH: EVQLVESGGGLVKPGGSLRLSCAASGFAFSIYDMSWVRQTPEKCLEWVAYISSGGGTTYYPDSVKGRFTISRENAKNSLYLQMNSLKSEDTAMYYCARHSGYGTHWGVLFAYWGQGTMVTVSS VL: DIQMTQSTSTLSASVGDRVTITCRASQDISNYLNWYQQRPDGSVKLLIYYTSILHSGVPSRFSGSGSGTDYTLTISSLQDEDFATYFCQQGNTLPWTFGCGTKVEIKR , answer whether its kon meets or surpasses 700000 M⁻¹ s⁻¹.
Reply text: not met

Inquiry: Given the entry HA22 mAb (antibody, human IgG1, kappa, V domains shown, also called positive antibody HA22 mAb) VH: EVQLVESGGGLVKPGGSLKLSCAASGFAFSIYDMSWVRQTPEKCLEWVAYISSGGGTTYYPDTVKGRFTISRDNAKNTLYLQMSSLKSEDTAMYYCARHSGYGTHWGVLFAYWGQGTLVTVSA VL: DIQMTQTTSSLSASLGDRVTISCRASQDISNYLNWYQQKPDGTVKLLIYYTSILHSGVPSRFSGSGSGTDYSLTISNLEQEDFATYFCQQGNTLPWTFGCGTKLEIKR , answer whether its kon meets or surpasses 700000 M⁻¹ s⁻¹.
Reply text: not met

Inquiry: Given the entry mAb-1 (antibody, human IgG1, kappa, V domains shown, Reconstructed IgG1/kappa antibody, humanized heavy chain with HA22 light chain; also called V2 HC + HA22 LC) VH: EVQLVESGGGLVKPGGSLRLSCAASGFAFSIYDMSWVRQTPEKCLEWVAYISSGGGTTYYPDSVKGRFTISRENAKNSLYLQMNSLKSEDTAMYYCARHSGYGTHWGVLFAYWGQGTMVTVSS VL: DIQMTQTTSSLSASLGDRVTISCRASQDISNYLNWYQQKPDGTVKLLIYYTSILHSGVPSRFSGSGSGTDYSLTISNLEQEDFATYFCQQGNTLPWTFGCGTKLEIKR , answer whether its kon meets or surpasses 700000 M⁻¹ s⁻¹.
Reply text: not met
